- assayed system: PIK3CA (Homo sapiens)
- Construct: endogenous in cells
- Sequence (P42336 whole entry): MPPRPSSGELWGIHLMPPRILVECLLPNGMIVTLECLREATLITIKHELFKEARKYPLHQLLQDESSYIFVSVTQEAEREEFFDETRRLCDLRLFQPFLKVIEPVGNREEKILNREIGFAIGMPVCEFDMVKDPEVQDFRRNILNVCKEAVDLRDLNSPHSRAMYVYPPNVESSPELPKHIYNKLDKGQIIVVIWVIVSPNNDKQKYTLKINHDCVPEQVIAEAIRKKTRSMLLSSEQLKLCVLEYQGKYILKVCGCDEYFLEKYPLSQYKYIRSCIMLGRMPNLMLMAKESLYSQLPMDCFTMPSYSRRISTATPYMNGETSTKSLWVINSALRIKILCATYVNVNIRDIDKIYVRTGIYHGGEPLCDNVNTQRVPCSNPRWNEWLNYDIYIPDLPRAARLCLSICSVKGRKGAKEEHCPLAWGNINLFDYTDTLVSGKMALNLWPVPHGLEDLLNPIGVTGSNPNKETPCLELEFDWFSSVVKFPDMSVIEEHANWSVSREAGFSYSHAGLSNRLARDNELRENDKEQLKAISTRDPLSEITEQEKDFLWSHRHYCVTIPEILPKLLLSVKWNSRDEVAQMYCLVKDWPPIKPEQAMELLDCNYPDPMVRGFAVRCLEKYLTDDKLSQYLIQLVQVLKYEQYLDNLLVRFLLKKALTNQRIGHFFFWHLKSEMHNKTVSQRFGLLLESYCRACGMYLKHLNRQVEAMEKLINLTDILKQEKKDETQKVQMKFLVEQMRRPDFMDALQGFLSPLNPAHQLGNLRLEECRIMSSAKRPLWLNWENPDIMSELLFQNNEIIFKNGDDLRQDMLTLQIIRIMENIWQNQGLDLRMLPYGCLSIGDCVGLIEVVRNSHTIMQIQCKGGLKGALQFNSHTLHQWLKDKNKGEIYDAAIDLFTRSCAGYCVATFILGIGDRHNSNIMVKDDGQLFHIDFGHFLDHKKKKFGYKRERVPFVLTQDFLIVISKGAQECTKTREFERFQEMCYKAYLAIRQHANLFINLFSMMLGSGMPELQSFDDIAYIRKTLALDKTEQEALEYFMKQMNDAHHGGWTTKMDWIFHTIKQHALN
- Sequence (P27986 whole entry partner): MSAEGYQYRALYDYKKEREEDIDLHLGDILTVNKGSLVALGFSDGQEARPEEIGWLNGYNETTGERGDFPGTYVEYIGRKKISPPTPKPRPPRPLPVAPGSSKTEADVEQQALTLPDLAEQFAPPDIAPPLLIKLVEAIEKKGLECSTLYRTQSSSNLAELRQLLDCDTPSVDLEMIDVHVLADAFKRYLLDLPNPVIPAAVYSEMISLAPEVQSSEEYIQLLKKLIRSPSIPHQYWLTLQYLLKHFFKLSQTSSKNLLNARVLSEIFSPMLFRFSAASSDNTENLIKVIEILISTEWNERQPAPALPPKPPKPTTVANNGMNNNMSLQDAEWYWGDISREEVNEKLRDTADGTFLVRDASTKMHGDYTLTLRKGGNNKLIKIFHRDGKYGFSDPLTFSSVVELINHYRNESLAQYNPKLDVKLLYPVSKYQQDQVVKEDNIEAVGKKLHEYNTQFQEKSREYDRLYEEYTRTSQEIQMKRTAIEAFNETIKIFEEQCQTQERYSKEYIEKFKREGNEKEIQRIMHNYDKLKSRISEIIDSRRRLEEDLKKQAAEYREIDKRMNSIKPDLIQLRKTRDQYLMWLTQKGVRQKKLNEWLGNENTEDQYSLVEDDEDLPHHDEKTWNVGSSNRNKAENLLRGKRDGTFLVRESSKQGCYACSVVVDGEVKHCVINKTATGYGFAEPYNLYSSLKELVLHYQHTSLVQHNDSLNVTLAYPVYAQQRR
- test details: In vitro ELISA target engagement assay for PIK3CA in Jurkat cellular lysate (competition with PIK3CA Biotin Probe)
- applied conditions: 1 hour at rt, then 500 nM PIK3CA Biotin Probe, read-out: Elisa Target Engagement Assay (TE50)
observed property: pIC50
// scale note: pIC50 = -log10(conc_M); give the bare number

Problem: Can you look up the measured pIC50 of COc1cccc(COc2cccc(-c3cc(Cl)ccc3S(=O)(=O)N3CCC(F)(C(=O)N[C@@H](C)/C=C\S(C)(=O)=O)CC3)c2)c1 [Compound 261] for me?
Solution: 6.32

Problem: Can you look up the measured pIC50 of C[C@@H](/C=C\S(C)(=O)=O)NC(=O)C1(F)CCN(S(=O)(=O)c2cnc(C(F)(F)F)cc2-c2ccc(F)cc2Cl)CC1 [Compound 212] for me?
Solution: 6.42

Problem: Can you look up the measured pIC50 of CCc1ccccc1-c1cc(Br)ccc1S(=O)(=O)N1CCC(F)(C(=O)N[C@H](C)/C=C\S(C)(=O)=O)CC1 [Compound 51] for me?
Solution: 6.26

Problem: Can you look up the measured pIC50 of COc1ccc(S(=O)(=O)N2CC[C@@](F)(C(=O)N[C@H](C)/C=C\S(C)(=O)=O)C[C@H]2C)c(-c2ccccc2Cl)c1 [Compound 141] for me?
Solution: 7.13

Problem: Can you look up the measured pIC50 of C[C@H](/C=C\S(C)(=O)=O)NC(=O)C1(F)CCN(S(=O)(=O)c2ccc(Cl)cc2-c2ccccc2)CC1 [Compound 20] for me?
Solution: 6.17

Problem: Can you look up the measured pIC50 of CS(=O)(=O)C=C1CN(C(=O)C2(F)CCN(S(=O)(=O)c3ccc(Br)cc3-c3ccccc3Cl)CC2)C1 [Compound 273] for me?
Solution: 6.08
